assayedTarget: Enolase
methodDescription: Enolase enzymatic activity in vitro
conditionLabel: read-out: IC50 as an enolase inhibitor
pIC50: −log10 of the molar value.
endpoint: pIC50

pIC50 lookup needed for O=C1C(P(=O)(O)O)CCN1O (stereo not shown) [deoxy-SF2312] , thanks.
~5.70
